- system.under.test: TDP-43 (Homo sapiens, UniProt Q13148 1-414)
- Sequence (Q13148 whole entry): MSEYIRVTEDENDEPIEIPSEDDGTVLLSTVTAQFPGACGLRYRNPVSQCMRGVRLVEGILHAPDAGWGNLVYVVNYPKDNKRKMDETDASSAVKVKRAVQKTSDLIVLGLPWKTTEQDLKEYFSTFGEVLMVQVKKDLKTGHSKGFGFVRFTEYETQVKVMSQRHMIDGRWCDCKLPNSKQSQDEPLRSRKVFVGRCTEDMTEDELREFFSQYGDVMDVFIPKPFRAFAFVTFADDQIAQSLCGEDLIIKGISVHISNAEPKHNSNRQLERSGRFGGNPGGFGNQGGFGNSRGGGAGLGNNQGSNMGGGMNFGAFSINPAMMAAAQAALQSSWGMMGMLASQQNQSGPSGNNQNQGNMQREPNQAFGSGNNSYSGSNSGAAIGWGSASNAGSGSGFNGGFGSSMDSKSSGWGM
- method: RNA Bind-n-Seq with designed 260-mer pool; 25 mM Tris-HCl, 150 mM KCl, 3 mM MgCl2, BSA (printed 500 mg/mL), 20 units/mL SUPERase IN; pH not stated; 500 nM RNA pool, 1 h, 4 C; TDP-43 5, 50, 500 nM; high values mean tight binding
- measurement.conditions: protein: recombinant; tags: SBP (GST cleaved off with PreScission; pGEX-GST-SBP)
Over roughly 9,900 sequences, “r (bound/input frequency ratio)” has its median near 0.7; the highest 2% begin near 6.5. The list comes from a sample in which the highest values are over-represented; it also holds close analogues and randomly drawn sequences.
Exercise: for every item that follows, state its recorded binding signal.

Ask: Give me measured binding signal, please, for this binder: ENSMUSG00000032194.277|Kank2 (ssRNA) RNA: GGGAGUUCUACAGUCCGACGAUCGCUUCGAUAUCCGCAUGCUAAUGGAUGGAUGAAUGAACAGAUAGAUGAAUGGAUGGAUGGACAGGUGGGUGGAUGGAUGGGUGGACGGAUGAGUGUGGGGUGGGUGGAUGGAUAAAUGAGCAAUGGAUGAGAAACUGGGUUGGCUGGUGGGUAGAUGUCAUGAUGGAGUCUUUGCACGUGUAUGAAACAGAAAACCAAACUUCAGGACAGACAGCUGCUGGUGUCUCUGGAUGCUCACAGCCUAGGGCACAUUUGAAAGGUCGUGCUCUGAGCUGAGCCCCUCUUGCGGUCGCACUAGUGUGGAAUUCUCGGGUGUCAAGG
Result: 7.21 R (bound/input frequency ratio)

Ask: Give me measured binding signal, please, for this binder: ENSMUSG00000043670.197|Diras1 (ssRNA) RNA: GGGAGUUCUACAGUCCGACGAUCGCUUCGAUAUCCGCAUGCUAAUCUGCGAGACUGUCCAGGAGACUUGAGUGGCUCCUGGGCCUGUGUCCCACCCAGAUGAGGGUGACUUAGAAUUCUGUGUUUAUGUGCCUGUGUGUGUGGAUGGGUGUGUGUCUGUCUUGGGAUGGGGUGUUCUUGCACCACUUUGUGUUCUUAGUGAGACCACAGUGUAAGUGGCCGUGUGUGUGUGUGGGGGGGGGCACCUAGACAUUGUGGUGUGUCUGUAUGGCUCUGUGUUUUCAGGGGUGGGUGACACAGGCCUCUCUUGCGGUCGCACUAGUGUGGAAUUCUCGGGUGUCAAGG
Result: 7.91 R (bound/input frequency ratio)

Ask: Give me measured binding signal, please, for this binder: ENSMUSG00000032194.278|Kank2 (ssRNA) RNA: GGGAGUUCUACAGUCCGACGAUCGCUUCGAUAUCCGCAUGCUAGGAUGAAUGAACAGAUAGAUGAAUGGAUGGAUGGACAGGUGGGUGGAUGGAUGGGUGGACGGAUGAGUGUGGGGUGGGUGGAUGGAUAAAUGAGCAAUGGAUGAGAAACUGGGUUGGCUGGUGGGUAGAUGUCAUGAUGGAGUCUUUGCACGUGUAUGAAACAGAAAACCAAACUUCAGGACAGACAGCUGCUGGUGUCUCUGGAUGCUCACAGCCUAGGGCACAUUUGAAAGGUCGUGCUCUGAGCUGAGCCCUGAGUUCUCUUGCGGUCGCACUAGUGUGGAAUUCUCGGGUGUCAAGG
Result: 5.8 R (bound/input frequency ratio)

Ask: Give me measured binding signal, please, for this binder: ENSMUSG00000032194.274|Kank2 (ssRNA) RNA: GGGAGUUCUACAGUCCGACGAUCGCUUCGAUAUCCGCAUGCUAGGAUGCAUAAAUGAAUAGAUGGAUGGAUGAAUGAACAGAUAGAUGAAUGGAUGGAUGGACAGGUGGGUGGAUGGAUGGGUGGACGGAUGAGUGUGGGGUGGGUGGAUGGAUAAAUGAGCAAUGGAUGAGAAACUGGGUUGGCUGGUGGGUAGAUGUCAUGAUGGAGUCUUUGCACGUGUAUGAAACAGAAAACCAAACUUCAGGACAGACAGCUGCUGGUGUCUCUGGAUGCUCACAGCCUAGGGCACAUUUGAAAGGUCCUCUUGCGGUCGCACUAGUGUGGAAUUCUCGGGUGUCAAGG
Result: 6.07 R (bound/input frequency ratio)
